Data credit: PubChem BioAssay AID1159580

Test: chemical genetic growth profiling, strain panel (AID 1159580);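 further: tested at 20 µM; growth read once vehicle control cultures reached saturation at 30 °C; 1 = growth at the plate median or of vehicle wells; lower values mean less growth of the strain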
Conditions: S. cerevisiae deletion strains, growth OD, locus YDL192W, strain arf1, hits give low values
Among all 5,500 compounds or so, about 2,000 (36%) were called active. Not shown: some 18% with an inconclusive outcome. The list shows a part of the results.
outcomeMeasure: normalized growth
Just the number, please.

Item under review: COC(=O)[C@@H]1OC(=O)C2OC23[C@@]1(C)CCC1[C@]2(C)C(C[C@H](O)[C@]13C)C(C)(C)[C@H](OC(C)=O)C[C@@H]2OC(C)=O (stereo partly specified) . Reported normalized growth?
1.01

Item under review: `O=C(O[C@@H]1Cc2c(O)cc(O)cc2O[C@@H]1c1ccc(O)c(O)c1)c1cc(O)c(O)c(O)c1` . Reported normalized growth?
0.993

Item under review: `Oc1cc(O)c2c(c1)O[C@H](c1ccc(O)c(O)c1)[C@@H](O)C2` . Reported normalized growth?
0.992

Item under review: O=C1CCC(N2C(=O)c3ccccc3C2=O)C(=O)N1 (stereo unspecified) . Reported normalized growth?
0.992

Item under review: c1ccc2c(c1)CCCC2C1=NCCN1 (stereo unspecified) . Reported normalized growth?
1

Item under review: OCC(O)CN1CCN(c2ccccc2)CC1 (stereo unspecified) . Reported normalized growth?
0.995

Item under review: C/C=C(\C)C(=O)O[C@H]1C[C@@H](OC(C)=O)[C@@]2(C(=O)OC)CO[C@@H]3C2[C@]12CO[C@](O)(C(=O)OC)[C@H]2[C@](C)(C12O[C@@]1(C)[C@H]1C[C@@H]2OC2OC=C[C@@]21O)[C@@H]3O (stereo partly specified) . Reported normalized growth?
0.986

Item under review: NCCC(O)C(=O)NC1CC(N)C(OC2OC(CN)C(O)C(O)C2N)C(OC2OC(CO)C(O)C2O)C1O (stereo unspecified) . Reported normalized growth?
1

Item under review: `Oc1cc(O)c2c(c1)O[C@H](c1cc(O)c(O)c(O)c1)[C@H](O)C2` . Reported normalized growth?
0.982

Item under review: `CC(=O)Oc1cc(OC(C)=O)c2c(c1)O[C@H](c1ccc(OC(C)=O)c(OC(C)=O)c1)[C@H](OC(C)=O)C2` . Reported normalized growth?
1.02

Item under review: `NC(=O)c1ccc[n+]([C@@H]2O[C@H](COP(=O)([O-])OP(=O)(O)OC[C@H]3O[C@@H](n4cnc5c(N)ncnc54)[C@H](OP(=O)(O)O)[C@@H]3O)[C@@H](O)[C@H]2O)c1` . Reported normalized growth?
1.01

====

Assay: chemical genetic growth profiling, strain panel (AID 1159580);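 further: tested at 20 µM; growth read once vehicle control cultures reached saturation at 30 °C; 1 = growth at the plate median or of vehicle wells; lower values mean less growth of the strain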
Conditions: S. cerevisiae deletion strains, growth OD, locus YER016W, strain bim1, hits give low values
The campaign covered roughly 5,500 compounds. About 2,000 (36%) were called active. Inconclusive results (about 18%) are left out. The list shows a part of the results.
I'd be grateful if you could share measured normalized growth for these entries.
Just the number, please.

Item under review: `NCCS(=O)(=O)O` . Reported normalized growth?
0.975

Item under review: `NCCc1cnc[nH]1` . Reported normalized growth?
1

Item under review: COC(=O)[C@@H]1OC(=O)C2OC23[C@@]1(C)CCC1[C@]2(C)C(C[C@H](O)[C@]13C)C(C)(C)[C@H](OC(C)=O)C[C@@H]2OC(C)=O (stereo partly specified) . Reported normalized growth?
1.01

Item under review: `O=C(Oc1cc(OC(=O)c2ccccc2)c2c(c1)O[C@H](c1ccc(OC(=O)c3ccccc3)c(OC(=O)c3ccccc3)c1)[C@@H](OC(=O)c1ccccc1)C2)c1ccccc1` . Reported normalized growth?
0.991

Item under review: `COc1ccc(-c2coc3cc(O)ccc3c2=O)c(OC)c1O` . Reported normalized growth?
0.986

Item under review: CN(C)CCCC1(c2ccc(F)cc2)OCc2cc(C#N)ccc21 (stereo unspecified) . Reported normalized growth?
0.985

Item under review: `COc1ccc(-c2coc3cc(O)ccc3c2=O)cc1` . Reported normalized growth?
0.979

Item under review: C[C@]12CCC(=O)C=C1C=CC1C2CC[C@@]2(C)C1CC[C@@]21CCC(=O)O1 (stereo partly specified) . Reported normalized growth?
0.975

Item under review: CCCCC/C=C/CCC(=O)N[C@H]1[C@H](Oc2c3cc4cc2Oc2ccc(cc2Cl)[C@@H](O[C@@H]2O[C@H](CO)[C@@H](O)[C@H](O)[C@H]2NC(C)=O)[C@@H]2NC(=O)[C@H](NC(=O)[C@@H]4NC(=O)[C@H]4NC(=O)C(Cc5ccc(c(Cl)c5)O3)NC(=O)[C@H](N)c3ccc(O)c(c3)Oc3cc(O)cc4c3)c3ccc(O)c(c3)-c3c(OC4O[C@H](CO)[C@@H](O)[C@H](O)[C@@H]4O)cc(O)cc3[C@@H](C(=O)O)NC2=O)O[C@H](CO)[C@@H](O)[C@@H]1O (stereo partly specified) . Reported normalized growth?
1.01

Item under review: C=C[C@@](C)(O)CCC1C(=C)C[C@H](O)C2C(C)(C)CCCC12C (stereo partly specified) . Reported normalized growth?
0.996

Item under review: `COc1ccc(CN(CCN(C)C)c2ccccn2)cc1` . Reported normalized growth?
1.02

Item under review: C=C1C2CC[C@@]3(C)[C@H](c4ccoc4)OC(=O)C[C@]13O[C@H]1CC(=O)C(C)(C)[C@H](C(OC(C)=O)C(=O)OC)[C@@]21C (stereo partly specified) . Reported normalized growth?
1.01

Item under review: `CN(C)CCN(Cc1cccs1)c1ccccn1` . Reported normalized growth?
1.01

Item under review: CC1(O)CC2C(CC1O)C2(C)C (stereo unspecified) . Reported normalized growth?
0.998

Item under review: C=C1CCC2[C@](C)(CO)[C@H](O)CC[C@@]2(C)[C@@H]1C/C=C1/C(=O)OC[C@H]1O (stereo partly specified) . Reported normalized growth?
0.978

Item under review: `O=c1c(-c2ccc(O)cc2)coc2cc(O)ccc12` . Reported normalized growth?
0.982

====

I'd be grateful if you could share measured normalized growth for these entries.
Experiment: chemical genetic growth profiling, strain panel (AID 1159580);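 further: tested at 20 µM; growth read once vehicle control cultures reached saturation at 30 °C; 1 = growth at the plate median or of vehicle wells; lower values mean less growth of the strain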
Details: S. cerevisiae deletion strains, growth OD, locus YBR171W, strain sec66, hits give low values
The campaign covered roughly 5,500 compounds. About 2,000 (36%) were called active. Roughly 18% stayed inconclusive and do not appear here. Some of the results follow.
Just the number, please.

Item under review: `COc1ccc2c(c1)OC/C(=C/c1ccc(OC)c(OC)c1)C2=O` . Reported normalized growth?
0.978

Item under review: C[C@@H]1CC(Cl)CC[C@H]1C(=O)OC(C)(C)C (stereo not given in full) . Reported normalized growth?
0.979

Item under review: `CCN(CC)C(=O)N1CCN(C)CC1` . Reported normalized growth?
0.99

Item under review: C=C1C2CC[C@@]3(C)[C@H](c4ccoc4)OC(=O)C[C@]13O[C@H]1CC(=O)C(C)(C)[C@H](C(OC(C)=O)C(=O)OC)[C@@]21C (stereo not given in full) . Reported normalized growth?
1.02

Item under review: COC(=O)C[C@H]1C2(C)CC34OC5(C)O[C@@]6([C@H](OC(C)=O)C(OC(C)=O)[C@]7(C)C(/C(=C(/O)C(C)C)C(=O)O[C@H]7c7ccoc7)[C@@]6(O5)[C@H](OC(C)=O)[C@@]3(O)C2OC(=O)C(C)C)[C@]14C (stereo not given in full) . Reported normalized growth?
0.994

====

Experiment: chemical genetic growth profiling, strain panel (AID 1159580);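 further: tested at 20 µM; growth read once vehicle control cultures reached saturation at 30 °C; 1 = growth at the plate median or of vehicle wells; lower values mean less growth of the strain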
Conditions: S. cerevisiae deletion strains, growth OD, locus YLR113W, strain HOG1, hits give low values
Hit rate of the full screen: of about 5,500 compounds, about 2,000 (36%) were called active. Inconclusive results (about 18%) are left out. The list shows a part of the results.
Returns: string. Value is label 1 if measured normalized growth is below 1, and label 0 if it is greater than or equal to it.

Lab note: confirm whether the reported normalized growth for this compound is below 1, equality not counting. compound: `C[C@@H]1O[C@@H](O[C@H]2[C@H](Oc3cc(O)c4c(=O)cc(-c5ccc(O)cc5)oc4c3)O[C@H](CO)[C@@H](O)[C@@H]2O)[C@H](O)[C@H](O)[C@H]1O`
label 1

Lab note: confirm whether the reported normalized growth for this compound is below 1, equality not counting. compound: C[C@]12CCC(=O)C=C1C=CC1C2CC[C@@]2(C)C1CC[C@@]21CCC(=O)O1 (stereo not given in full)
label 1

Lab note: confirm whether the reported normalized growth for this compound is below 1, equality not counting. compound: CC[C@]1(O)CC2CN(CCc3c([nH]c4ccccc34)[C@@](C(=O)OC)(c3cc4c(cc3OC)N(C)[C@H]3[C@@](O)(C(=O)OC)[C@H](OC(C)=O)[C@]5(CC)C=CCN6CC[C@]43[C@@H]65)C2)C1 (stereo not given in full)
label 1

Lab note: confirm whether the reported normalized growth for this compound is below 1, equality not counting. compound: `CC(C)c1ccc(COC(=O)Nc2ccc(CSc3ccc(Cl)cc3)o2)cc1`
label 1

Lab note: confirm whether the reported normalized growth for this compound is below 1, equality not counting. compound: `O=[N+]([O-])c1ccc(-c2noc(-c3ccno3)n2)o1`
label 1

Lab note: confirm whether the reported normalized growth for this compound is below 1, equality not counting. compound: `O=C(NCc1ccc(Cl)c(Cl)c1)c1cccnc1OCC(F)(F)F`
label 1

Lab note: confirm whether the reported normalized growth for this compound is below 1, equality not counting. compound: CC(=O)S[C@@H]1CC2=CC(=O)CC[C@]2(C)[C@H]2CC[C@@]3(C)[C@@H](CC[C@@]34CCC(=O)O4)C12 (stereo not given in full)
label 0

Lab note: confirm whether the reported normalized growth for this compound is below 1, equality not counting. compound: `CCn1cc(C(=O)O)c(=O)c2cc(F)c(N3CCNCC3)nc21`
label 0

Lab note: confirm whether the reported normalized growth for this compound is below 1, equality not counting. compound: CC(=O)O[C@H]1C[C@@H](OC(C)=O)C(C)(C)C2CC(=O)[C@]3(C)C(CC[C@@]4(C)[C@H](C(=O)O)OC(=O)C5OC543)[C@]21C (stereo not given in full)
label 1

Lab note: confirm whether the reported normalized growth for this compound is below 1, equality not counting. compound: `N/C(CCSc1ccc(Cl)cc1)=N/OC(=O)Nc1ccc(Cl)cc1`
label 1

Lab note: confirm whether the reported normalized growth for this compound is below 1, equality not counting. compound: `COc1ccc2c(=O)c(-c3ccc(O)cc3)coc2c1`
label 1
